Item-by-item account of PDI
experiment: Diameter and PDI from DLS measurements of mRNA nanoparticles with lipid amines; format: physicochemical; conditions: Luciferase mRNA nanoparticle modified with lipid amine
Where a name gives a salt, the structure may show the parent alone.
Give the figure by itself; no unit, no explanation.

Solved entries:
molecule	PDI
CC(C)CCC[C@@H](C)[C@H]1CC[C@H]2[C@@H]3CC=C4C[C@@H](OC(=O)CCCC(=O)N(CCCCCCCC(C)N)CCC(C)N)CC[C@]4(C)[C@H]3CC[C@]12C (some centres unmarked) [SA142, dihydrochloride]	0.19
CC(C)CCC[C@@H](C)[C@H]1CC[C@H]2[C@@H]3CC=C4C[C@@H](OC(=O)CCC(=O)N(CCCC(C)(C)N)CCC(C)(C)N)CC[C@]4(C)[C@H]3CC[C@]12C [SA166, dihydrochloride]	0.14
CC(C)CCC[C@@H](C)[C@H]1CC[C@H]2[C@@H]3CC=C4C[C@@H](OC(=O)CCCCC(=O)N(CCCN)CCCCNCCCN)CC[C@]4(C)[C@H]3CC[C@]12C [SA89, trihydrochloride]	0.16
CC(C)CCC[C@@H](C)[C@H]1CC[C@H]2[C@@H]3CC=C4C[C@@H](OC(=O)N(CCCN)CCCCCCCCN)CC[C@]4(C)[C@H]3CC[C@]12C [SA60, dihydrochloride]	0.13

Next up:
Input CC(C)CCC[C@@H](C)[C@H]1CC[C@H]2[C@@H]3CC=C4C[C@@H](OC(=O)C(C)C(=O)N(CCCN)CCCCNCCCN)CC[C@]4(C)[C@H]3CC[C@]12C.Cl.Cl.Cl (some centres unmarked) [SA62] , output reported PDI.
0.20

---

system: HeLa cells; experiment: Luciferase Protein Expression Assay in HeLa Cells; assay type: cell-based, Human; conditions: LNPs encapsulating Luciferase mRNA, 25 ng per well, N=4 wells; 5 h serum-free then 24 h; ONE-Glo
Where a name gives a salt, the structure may show the parent alone.
observed_property: Average Relative Light Units ± Standard Deviation (Relative Light Units)
Give the value, in units of Relative Light Units, as a plain number.

Use the examples below as a reference point.
compound	measured
CC[C@H](CC[C@@H](C)[C@H]1CC[C@H]2[C@@H]3CC=C4C[C@@H](OC(=O)N(CCCCCCN)CCCCCCN)CC[C@]4(C)[C@H]3CC[C@]12C)C(C)C [SA82, dihydrochloride]	33396.2
CC[C@H](CC[C@@H](C)[C@H]1CC[C@H]2[C@@H]3CC=C4C[C@@H](OC(=O)CCCC(=O)N(CCCCNCCC(C)(C)N)CCC(C)(C)N)CC[C@]4(C)[C@H]3CC[C@]12C)C(C)C.Cl.Cl.Cl [SA137]	15239.8

Determine from records and report Average Relative Light Units ± Standard Deviation for CC(C)CCC[C@@H](C)[C@H]1CC[C@H]2[C@@H]3CC=C4C[C@@H](OC(=O)N(CCCCNCCC(C)(C)N)CCC(C)(C)N)CC[C@]4(C)[C@H]3CC[C@]12C [SA78, trihydrochloride]
14341.8

State its Average Relative Light Units ± Standard Deviation for this compound: CC(C)CCC[C@@H](C)[C@H]1CC[C@H]2[C@@H]3CC=C4C[C@@H](SSCCC(=O)N(CCCCCCCC(C)N)CCC(C)N)CC[C@]4(C)[C@H]3CC[C@]12C (stereo partly shown) [SA172, dihydrochloride]
27528.4
